- ASSAY: TROY pathway blockers in reporter cells – Q293 LMP1-TROYcd cells, NF-kB luciferase, uHTS, primary screen (AID 1347056)
- MEASUREMENT_SETUP: 4 h, at 10 µM, hits give high values
In all, about 360,000 compounds went through this assay and about 3,600 (1%) were called active. The sample as a whole holds a higher share of actives than the screen did.
Please use 1 (yes) whenever inhibition is not below 10%, and 0 (no) whenever it is.

Before answering, review these 4 worked examples.
* Cc1ccc(CNCc2ccc3c(c2)OCO3)c(C)c1 | 0 (no)
* CCCCC[C@H]1CN(C2CCCCC2)C(=O)[C@@H]1CC(=O)NCc1ccc(OC)cc1 | 1 (yes)
* COc1ccc(-c2cc(C(=O)N(C)Cc3ccc(OC)c(OC)c3OC)c3ccccc3n2)cc1OC | 1 (yes)
* COc1ccc(C2=NO[C@@H]3C(=O)N(Cc4ccccc4)C(=O)[C@H]23)cc1OC | 0 (no)

Consider the additional compound presented here.
Request: inhibition >= 10% for CC(=O)Nc1sc2c(c1C(c1cccc(F)c1)N1CCN(CCO)CC1)CCCC2 (stereo not given) ?
Response: 0 (no)

###

- ASSAY: TROY pathway blockers in reporter cells – Q293 LMP1-TROYcd cells, NF-kB luciferase, uHTS, primary screen (AID 1347056)
- MEASUREMENT_SETUP: 4 h, at 10 µM, hits give high values
In all, about 360,000 compounds went through this assay and about 3,600 (1%) were called active. Shown is part of a subset that was picked to be rich in actives.
OBSERVATION_TYPE: inhibition (%)
Unit % implied. Number only.

• CCCc1cc(=O)[nH]c(SCC(=O)Nc2sc3c(c2C#N)CCCC3)n1 = -13.3

Request: Provide measured inhibition value, entry: "COc1cccc(-c2nn(-c3ccccc3)cc2/C=C(\C#N)C(=O)NCCCn2ccnc2)c1"
Response: -24.5

Request: Report measured inhibition; entry is CC(C)(Oc1ccc(C2CC2(Cl)Cl)cc1)C(=O)O (configuration not stated)
Response: -11.2

Request: Kindly indicate its recorded inhibition. Item: "CCOc1ccc2c(c1)c(=O)c(S(=O)(=O)c1ccc(C)cc1)cn2CC"
Response: 0.7

Request: Fill in reported inhibition for this entry: "CC(=O)c1cc(CN2CCC(n3nccc3NC(=O)c3ccccc3Cl)CC2)cs1"
Response: -6.73

Request: Give inhibition for the following molecule: "CCOC(=O)[C@]12CCC=C1N(Cc1ccco1)C(=O)[C@H](CC(=O)N1CCSCC1)C2"
Response: -1.7

Request: Identify measured inhibition associated with "NC(=NC(=O)c1ccccc1)N1CCOCC1"
Response: -4.29

Request: Consider the molecule "COc1ccc(-c2c(C)cc3oc(=O)cc(-c4ccccc4)c3c2C)cc1F" . State its measured inhibition.
Response: -22

Request: Please give the documented inhibition of "COc1ccc(-c2c(C)cc3oc(=O)cc(-c4ccccc4)c3c2C)cc1OC"
Response: 1.76

Request: Hello, please tell me recorded inhibition for this one: COc1ccc(OC)c(C(O)c2nc3ccccc3n2C)c1 (configuration not stated)
Response: -7.8

Request: Determine from records and report inhibition for CC1CN(C(=S)SCC(=O)c2ccccc2)CC(C)O1 (configuration not stated)
Response: -38.2

Request: Input "COc1ccc(-c2nn(-c3ccccc3)cc2/C=C2/SC(=S)N(CCCC(=O)O)C2=O)c(C)c1" , output reported inhibition.
Response: 58

Request: Read off the recorded inhibition for "COc1ccc(CN(C)C(=S)Nc2ccc(Cl)cc2Cl)cc1"
Response: -7.98

###

- ASSAY: TROY pathway blockers in reporter cells – Q293 LMP1-TROYcd cells, NF-kB luciferase, uHTS, primary screen (AID 1347056)
- MEASUREMENT_SETUP: 4 h, at 10 µM, hits give high values
The whole screen tested about 360,000 compounds, of which about 3,600 (1%) were called active. Shown is part of a subset that was picked to be rich in actives.
Listed compounds paired with reported inhibition
Reply numerically in %, unit not repeated.

Request: Consider the compound "CC(C)C[C@H]1CNC(=O)C(=O)N1C[C@H]1CCCN1C[C@H](Cc1ccc(O)cc1)N1C[C@H](CC(C)C)N(CC2CCCCCC2)C(=O)C1=O" . State its measured inhibition.
Response: -20.6

Request: Given "C/C(CC(=O)Nc1ccc(C)cc1C)=N\NC(=O)C(C)C" , respond with its inhibition.
Response: 7.58

Request: Please look at this compound and report its inhibition: "O=C1C=CC(=O)N1c1ccc(N2CCCCC2)cc1"
Response: -3

Request: Give inhibition for Cc1ccc2c(c1)N(CC(=O)N(Cc1ccccn1)Cc1ccco1)C(=O)C(C(C)C)O2 (stereo not given)
Response: 4.87

Request: Return the recorded inhibition value; entry: CC1(C)Cc2c(sc(NC(=O)C(=O)NCC3CCCO3)c2C(=O)O)CO1 (stereo not given)
Response: -13.6

Request: Please list inhibition recorded for the compound "CCc1c(O)cc2n(c1=O)-c1ccccc1C2(C)C"
Response: 4.14

Request: Report inhibition, nothing else, for this compound: Cc1ccc(N(C(=O)C(F)(F)F)C(C(=O)NC2CCCCC2)c2ccncc2)cc1C (stereo not given)
Response: -2.62

Request: Give recorded inhibition. "C=CCn1c2c(c3ccccc31)CCC2"
Response: -7.49

Request: Using known records, supply inhibition for "CCOc1ccc(/C=C(/NC(=O)c2ccccc2)C(=O)NCCC(=O)O)cc1"
Response: 4.42

Request: Please report inhibition for the following compound: "CC[C@@H]1Cc2cc(O)ccc2C2=C1c1ccc(O)cc1C[C@H]2CC"
Response: 59.9

###

Some compounds, each annotated with its measured inhibition.
- ASSAY: TROY pathway blockers in reporter cells – Q293 LMP1-TROYcd cells, NF-kB luciferase, uHTS, primary screen (AID 1347056)
- MEASUREMENT_SETUP: 4 h, at 10 µM, hits give high values
In all, about 360,000 compounds went through this assay and about 3,600 (1%) were called active. The list comes from a sample in which actives are over-represented; it also holds close analogues and randomly drawn compounds.

Check out these entries, answers already filled in.
* Cc1ccc(-c2nc3ccc(Cl)cn3c2Cc2ccccc2)cc1 | -69.6% (inactive)
* CC1Cc2ccccc2N1S(=O)(=O)c1c(N)n(C)c(=O)n(C)c1=O (stereo unspecified) | 0.15% (inactive)

Request: Provide measured inhibition value, entry: "COc1cccc(N=c2oc3c(C)ncc(CO)c3cc2C(N)=O)c1"
Response: -39.2% (inactive)

Request: Item "Cc1ccc(-c2cc(N)on2)cc1" : provide inhibition
Response: -41.2% (inactive)

Request: Given the compound "Cc1ccc(-c2nc3ccc(Br)cn3c2Cc2ccccc2C(F)(F)F)cc1" , write its reported inhibition.
Response: -33.5% (inactive)

Request: Give me measured inhibition, please, for this compound: CCOC12CC(C)(C)CC(C)(CC3=C1C(=O)CC(C)(C)C3)C2 (stereo unspecified)
Response: 8.44% (inactive)

Request: # return recorded inhibition for entry "COc1cc2cc(C(=O)N/N=C/c3cccc(OC)c3OC)[nH]c2cc1OC"
Response: 69.2% (active)

###

- ASSAY: TROY pathway blockers in reporter cells – Q293 LMP1-TROYcd cells, NF-kB luciferase, uHTS, primary screen (AID 1347056)
- MEASUREMENT_SETUP: 4 h, at 10 µM, hits give high values
The whole screen tested about 360,000 compounds, of which about 3,600 (1%) were called active. This is one part of a sample in which actives are shown more often than they occur.
OBSERVATION_TYPE: inhibition (%)
Write down the numeric answer in % and omit the unit.

Request: Please indicate inhibition recorded for Cc1ccc(OCCCC(=O)NC(C)c2ccccc2)c(C)c1 (centres undefined)
Response: -19.3

Request: Output measured inhibition for this item: CCCC(C)C(=O)NCc1ccncc1 (centres undefined)
Response: 8.22

Request: Read off the recorded inhibition for O=C1NC(c2ccncc2)Nc2sc3c(c21)CCCC3 (centres undefined)
Response: -12.2

Request: Supply measured inhibition of "Cc1ccc(CN(Cc2cccnc2)C(=S)Nc2cc(Cl)ccc2C)cc1" in your reply.
Response: -0.68

Request: Return reported inhibition. Input molecule: "COc1ccc([N+](=O)[O-])cc1NC(=O)c1ccc(N(Cc2ccccc2C)S(C)(=O)=O)cc1"
Response: 13.5

###

- ASSAY: TROY pathway blockers in reporter cells – Q293 LMP1-TROYcd cells, NF-kB luciferase, uHTS, primary screen (AID 1347056)
- MEASUREMENT_SETUP: 4 h, at 10 µM, hits give high values
Among all 360,000 compounds or so, about 3,600 (1%) were called active. Only a selection was taken, and actives are over-represented in it overall.
Rule: inhibition under 20% gives 0, otherwise 1.

• CN1CCN(S(=O)(=O)c2cccc(C(=O)Nc3sccc3C#N)c2)CC1 = 0

Request: Quick check: does Cc1ccc(C(O)c2ncc(-c3ccccc3F)[nH]2)cc1F (stereo not given) have inhibition greater than or equal to 20%?
Response: 0

Request: Exam item: decide whether the reported inhibition for "O=C1CSC(=S)N1c1ccc(Cl)c(Cl)c1" is at least 20%.
Response: 1

Request: Reported inhibition at or above 20%? "COc1ccc(Br)cc1/C=N/Nc1ccc(S(=O)(=O)Nc2ccccc2C(=O)O)cc1[N+](=O)[O-]"
Response: 1

Request: Would you say "CN1CCN(c2ccc(NC(=O)c3ccc4c(c3)OCCO4)cc2Cl)CC1" shows inhibition at minimum 20%?
Response: 1
